Value source: PubChem BioAssay AID720577

Target: CCHF virus vOTU protease domain (L polyprotein)
Assay: CCHF virus vOTU protease inhibition, Pep AMC substrate counterscreen, fluorescence, confirmatory IC50 (AID 720577)
Conditions: purified vOTU
Activity calls are given as the source filed them. No rule for the calls is given here.
Labels: active, inactive

> print(dat)
                                    compound                          target.or.system     label
 1      Cc1nc2c(o1)C(=O)c1ccccc1C2=Nc1ccccc1  CCHF virus vOTU protease domain (L polyprotein)  inactive
 2  Cc1oc2c(c1C(=O)N1CCOCC1)C(=O)c1ccccc1C2=O  CCHF virus vOTU protease domain (L polyprotein)  inactive
 3            O=C1C=C(Nc2ccccc2)c2ccccc2C1=O  CCHF virus vOTU protease domain (L polyprotein)  inactive
 4  CCOC(=O)C1CCN(C(=O)c2c(C)oc3c2C(=O)c2ccccc2C3=O)CC1  CCHF virus vOTU protease domain (L polyprotein)  inactive
 5  CC[C@H](CO)Oc1cc(NCc2cccc(N)c2)c2ncn(C(C)C)c2c1  CCHF virus vOTU protease domain (L polyprotein)  inactive
 6         O=C1C(SCCO)=C(SCCO)C(=O)c2ccccc21  CCHF virus vOTU protease domain (L polyprotein)    active
 7              S=C(Nc1ccc2nsnc2c1)N1CCCCCC1  CCHF virus vOTU protease domain (L polyprotein)  inactive
 8             O=C1C=C(O)c2[nH]c(=O)ccc2C1=O  CCHF virus vOTU protease domain (L polyprotein)  inactive
 9  O=S(=O)(N=C1C=CC(=NS(=O)(=O)c2ccccc2)c2ccccc21)c1ccccc1  CCHF virus vOTU protease domain (L polyprotein)  inactive
10     COc1ccc(Cc2nccc3cc(OC)c(OC)cc23)cc1OC  CCHF virus vOTU protease domain (L polyprotein)  inactive
11  CN(C1=C(NC(=O)c2ccccc2)C(=O)c2ccccc2C1=O)C1CCS(=O)(=O)C1 (stereo not given)  CCHF virus vOTU protease domain (L polyprotein)    active
12  Cc1ccc(Cl)cc1NC1=C/C(=N\S(=O)(=O)c2cccs2)c2ccccc2C1=O  CCHF virus vOTU protease domain (L polyprotein)    active
13   O=C(/C=C/c1ccc([N+](=O)[O-])s1)N1CCCCC1  CCHF virus vOTU protease domain (L polyprotein)  inactive
14  CC1(OC(=O)C2CCCC2)C(=O)C=C2C=C(c3ccsc3)N(CCCCO)C=C2C1=O (stereo not given)  CCHF virus vOTU protease domain (L polyprotein)  inactive
15               O=C1C(=O)c2cccnc2-c2ncccc21  CCHF virus vOTU protease domain (L polyprotein)  inactive
16  O=C(O)c1ccc(NC2=C/C(=N/S(=O)(=O)c3cccs3)c3ccccc3C2=O)cc1  CCHF virus vOTU protease domain (L polyprotein)    active
17  CCCCCCCCN1C(=O)[C@@H](CC(=O)NCCCOCCCC)C[C@@]2(C(=O)OC)C1=C[C@H](C(C)C)O[C@@H]2C1CC1  CCHF virus vOTU protease domain (L polyprotein)  inactive
18        Cc1ccccc1-c1cc2c(nn1)-c1ccccc1C2=O  CCHF virus vOTU protease domain (L polyprotein)    active
19      O=C1C=C(Nc2ccccc2C(=O)O)c2ccccc2C1=O  CCHF virus vOTU protease domain (L polyprotein)    active
20   CC1(C)C=C2C(=NN(c3ccccc3)C(N)=C2C#N)CO1  CCHF virus vOTU protease domain (L polyprotein)  inactive
21    NC1=C(Cl)C(=O)c2ccc(S(N)(=O)=O)cc2C1=O  CCHF virus vOTU protease domain (L polyprotein)    active
22  CN(C)c1cccc2c1c(NS(=O)(=O)c1cn(C)cn1)nn2C  CCHF virus vOTU protease domain (L polyprotein)  inactive
23         CCOC(=O)c1cc2c(ccn2C)n1Cc1ccccc1C  CCHF virus vOTU protease domain (L polyprotein)  inactive
24  CCn1nc(/C=C/c2ccccc2)nc2c(=O)n(C)c(=O)nc1-2  CCHF virus vOTU protease domain (L polyprotein)    active
25  COc1ccc(-n2c3nc4ccccc4nc3c3c(=N)oc(C)nc32)cc1  CCHF virus vOTU protease domain (L polyprotein)  inactive
26  O=C(O)c1ccc(NC2=C(n3nnc4ccccc43)C(=O)c3ccccc3C2=O)cc1  CCHF virus vOTU protease domain (L polyprotein)  inactive
27        Cc1oc2c(c1C(=O)O)C(=O)c1ccccc1C2=O  CCHF virus vOTU protease domain (L polyprotein)  inactive
28                 Oc1ccccc1CNc1cccc2cccnc12  CCHF virus vOTU protease domain (L polyprotein)  inactive
29  O=C(O)c1ccc(NC2=C/C(=N/S(=O)(=O)c3ccccc3)c3ccccc3C2=O)cc1  CCHF virus vOTU protease domain (L polyprotein)    active
30            C=CCN(CC=C)C(=S)Nc1ccc2nsnc2c1  CCHF virus vOTU protease domain (L polyprotein)  inactive
31  CC(=O)[C@H]1[C@@H]2C(=O)N(c3cccc(Cl)c3)C(=O)[C@@H]2[C@H]2c3ccccc3C=CN21  CCHF virus vOTU protease domain (L polyprotein)  inactive
32             O=C1Cc2ccccc2C(=O)N1Cc1ccccc1  CCHF virus vOTU protease domain (L polyprotein)    active
33    Cn1nc(-c2ccccn2)nc2c(=O)n(C)c(=O)nc1-2  CCHF virus vOTU protease domain (L polyprotein)    active
34    O=C(NC(=S)Nc1ccccc1N1CCCC1)c1ccc(F)cc1  CCHF virus vOTU protease domain (L polyprotein)  inactive
35     Cc1ccc2c(c1C)-c1c(ccc(C)c1C)C(=O)C2=O  CCHF virus vOTU protease domain (L polyprotein)  inactive
36  COc1cc(C=c2c3ccccc3n3c2cc(-c2ccccc2)[n+]3C)cc(OC)c1OC  CCHF virus vOTU protease domain (L polyprotein)    active
37          Nc1cc2c(cc1Br)[nH]c(=O)c1ccccc12  CCHF virus vOTU protease domain (L polyprotein)    active
38  COc1cc(NC(=O)COC(=O)c2ccc([N+](=O)[O-])s2)cc(OC)c1OC  CCHF virus vOTU protease domain (L polyprotein)  inactive
39      COc1ccccc1Nc1cc2cc(Br)ccc2c(=O)[nH]1  CCHF virus vOTU protease domain (L polyprotein)    active
40  CC1OC(CC(=O)O)CC2=C1C(=O)c1c(O)cccc1C2=O (stereo not given)  CCHF virus vOTU protease domain (L polyprotein)  inactive
41            Cc1cnc(C=NNC(N)=S)c2cccc(N)c12  CCHF virus vOTU protease domain (L polyprotein)  inactive
42  CC(=O)N(C)c1ccc(N=Cc2cc3c(cc2[N+](=O)[O-])OCO3)cc1  CCHF virus vOTU protease domain (L polyprotein)  inactive
43  CN(C)c1ccc(C=c2c3cc(O)ccc3n3c2cc(-c2ccccc2)[n+]3C)cc1  CCHF virus vOTU protease domain (L polyprotein)    active
44  Clc1ccc(C2=CSC3=Nc4cccc5cccc(c45)N23)cc1  CCHF virus vOTU protease domain (L polyprotein)  inactive
45  CCCCn1c(NS(=O)(=O)c2ccccc2)c(S(=O)(=O)c2ccc(C)cc2)c2nc3ccccc3nc21  CCHF virus vOTU protease domain (L polyprotein)  inactive

* * *

Target: CCHF virus vOTU protease domain (L polyprotein)
Experiment: CCHF virus vOTU protease inhibition, Pep AMC substrate counterscreen, fluorescence, confirmatory IC50 (AID 720577)
Settings: purified vOTU
The source made the active and inactive calls. No rule for the calls is given here.
Labels: active, inactive

> print(dat)
                                    molecule                          target.or.system     label
 1          Cc1cc2c(cc1C)C(=O)C(Br)=C(N)C2=O  CCHF virus vOTU protease domain (L polyprotein)  inactive
 2  O=C(COC(=O)c1ccc([N+](=O)[O-])s1)Nc1ccc(Cl)cn1  CCHF virus vOTU protease domain (L polyprotein)  inactive
 3  O=C1C(Nc2cccc(O)c2)=C(N2CCCCC2)C(=O)c2ccccc21  CCHF virus vOTU protease domain (L polyprotein)  inactive
 4  O=C1Nc2ccc([N+](=O)[O-])cc2C1=Nc1cccc(CO)c1  CCHF virus vOTU protease domain (L polyprotein)  inactive
 5             O=[N+]([O-])c1cc(O)c2ncccc2c1  CCHF virus vOTU protease domain (L polyprotein)  inactive
 6  COc1cc2c(cc1OC)-c1c(OC)c(OC)cc3c1[C@H](C2)N(C)CC3  CCHF virus vOTU protease domain (L polyprotein)  inactive
 7  C[n+]1c(-c2ccccc2)cc2c(=Cc3ccccc3)c3ccccc3n21  CCHF virus vOTU protease domain (L polyprotein)    active
 8                O=C1C=C(N2CC2)c2ccccc2C1=O  CCHF virus vOTU protease domain (L polyprotein)    active
 9          COc1ccc(NC(=S)Nc2ccc3nsnc3c2)cc1  CCHF virus vOTU protease domain (L polyprotein)    active
10  C=CCN1C(=O)/C(=C/c2ccc(OC(C)=O)c(OCC)c2[N+](=O)[O-])SC1=S  CCHF virus vOTU protease domain (L polyprotein)  inactive
11  COc1cc(NC(C)CCCN)c2ncccc2c1 (centres undefined)  CCHF virus vOTU protease domain (L polyprotein)  inactive
12  O=C(O)c1cccc(NC2=C(n3nnc4ccccc43)C(=O)c3ccccc3C2=O)c1  CCHF virus vOTU protease domain (L polyprotein)  inactive
13             O=C1C=C(N2CCOCC2)c2ccccc2C1=O  CCHF virus vOTU protease domain (L polyprotein)  inactive
14  COc1ccc(CNC(=O)c2c(C)oc3c2C(=O)c2ccccc2C3=O)cc1  CCHF virus vOTU protease domain (L polyprotein)  inactive
15  COc1cc(Br)c(C(=O)c2nccc3cc(OC)c(OC)cc23)cc1OC  CCHF virus vOTU protease domain (L polyprotein)    active
16  N#CC1=C(S)N(c2ccccc2)C(c2ccc(-c3ccc(Cl)c(Cl)c3)o2)NC1=O (centres undefined)  CCHF virus vOTU protease domain (L polyprotein)  inactive
17  CC(=O)NC1=C(N(C)C2CCS(=O)(=O)C2)C(=O)c2ccccc2C1=O (centres undefined)  CCHF virus vOTU protease domain (L polyprotein)  inactive
18  COc1cc(NCCCC(C)N)c2ncccc2c1 (centres undefined)  CCHF virus vOTU protease domain (L polyprotein)    active
19  COc1ccccc1NC(=O)COC(=O)c1ccc([N+](=O)[O-])s1  CCHF virus vOTU protease domain (L polyprotein)  inactive
20             O=C1C=C(N2CCCCC2)c2ccccc2C1=O  CCHF virus vOTU protease domain (L polyprotein)  inactive
21                CN(C)CCCNc1cc(O)c2ncccc2c1  CCHF virus vOTU protease domain (L polyprotein)  inactive
22          CCOCCCNC1=C(Cl)C(=O)c2ccccc2C1=O  CCHF virus vOTU protease domain (L polyprotein)  inactive
23  O=C(O)CSc1cc(NS(=O)(=O)c2ccc(Br)cc2)c2ccccc2c1O  CCHF virus vOTU protease domain (L polyprotein)  inactive
24  CC1COCC(C)N1C1=C(Cl)C(=O)c2ccccc2C1=O (centres undefined)  CCHF virus vOTU protease domain (L polyprotein)  inactive
